pKi: −log10 of the molar value.
System: Protein kinase C beta type (Homo sapiens) | Read-out: pKi | Origin: multiple publications
endpointName: pKi

Below: 5 molecules and their reported pKi.
- molecule: "C[C@H]1CN2CCC[C@H]2CN1C(=O)N1Cc2c(NC(=O)c3cc4cccn4cn3)n[nH]c2C1(C)C"
  measValue: 7.86
- molecule: "COCCCN1C[C@H](C)N(C(=O)N2Cc3c(NC(=O)c4ccc(F)cn4)n[nH]c3C2(C)C)C[C@H]1C"
  measValue: 7.61
- molecule: "COc1cc(C(=O)Nc2n[nH]c3c2CN(C(=O)N2C[C@@H]4CCCN4C[C@@H]2C)C3(C)C)nc(OC)n1"
  measValue: 7.02
- molecule: "COCc1ncc(F)c(Nc2n[nH]c3c2CN(C(=O)N2CC(CCO)N(C)C[C@@H]2C)C3(C)C)n1 (single isomer, unassigned)"
  measValue: 7.81
- molecule: "CCOc1ncc(F)c(Nc2n[nH]c3c2CN(C(=O)N2C[C@@H](C)N(CCOC)C[C@@H]2C)C3(C)C)n1"
  measValue: 8.48

I. C[C@H]1CN2CCC[C@H]2CN1C(=O)N1Cc2c(NC(=O)c3ccc(Br)cn3)n[nH]c2C1(C)C
II. Cc1ccc(F)c(Nc2n[nH]c3c2CN(C(=O)N2C[C@@H]4CCCN4C[C@@H]2C)C3(C)C)n1
Query: // which entry reports the smaller pKi, I or II ? Reply with the label of the item you choose.
Reply: I
(I: 7.69, II: 8.19)

----------
System: Protein kinase C beta type (Homo sapiens, UniProt P05771) | Read-out: Ki | Origin: multiple publications
endpointName: Ki (µM)

- molecule: "C[C@@H]1CN(C(=O)N2Cc3c(Nc4ccnc(C#N)n4)n[nH]c3C2(C)C)[C@@H](C)CN1C"
  systemUnderTest: "Protein kinase C beta type (Homo sapiens, UniProt P05771)"
  Ki, µM: 0.00243
- molecule: "CN1CCN(C(=O)N2Cc3c(NC(=O)c4cccc(Oc5ccccc5)c4)n[nH]c3C2(C)C)C(c2ccccc2)C1 (stereo not drawn)"
  systemUnderTest: "Protein kinase C beta type (Homo sapiens, UniProt P05771)"
  Ki, µM: 0.159
- molecule: "CCC[C@H]1CN2CCC[C@H]2CN1C(=O)N1Cc2c(NC(=O)c3ccccc3)n[nH]c2C1(C)C"
  systemUnderTest: "Protein kinase C beta type (Homo sapiens, UniProt P05771)"
  Ki, µM: 0.0961
- molecule: "C[C@@H]1CN(C(=O)N2Cc3c(NC(=O)c4cc(C5CC5)on4)n[nH]c3C2(C)C)[C@@H](C)CN1C"
  systemUnderTest: "Protein kinase C beta type (Homo sapiens, UniProt P05771)"
  Ki, µM: 0.0268
- molecule: "CC[C@H]1CN2CCC[C@@H]2CN1C(=O)N1Cc2c(CC(=O)c3ccccn3)n[nH]c2C1(C)C"
  systemUnderTest: "Protein kinase C beta type (Homo sapiens, UniProt P05771)"
  Ki, µM: 0.107

P. CCc1ocnc1C(=O)Nc1n[nH]c2c1CN(C(=O)N1C[C@@H](C)N(C)C[C@@H]1C)C2(C)C
Q. C[C@H]1CN2CCC[C@H]2CN1C(=O)N1Cc2c(NC(=O)c3ccccn3)n[nH]c2C1(C)C
R. Cc1cc(C)nc(Nc2n[nH]c3c2CN(C(=O)N2C[C@@H](C)N(CC4CCOCC4)C[C@@H]2C)C3(C)C)n1
S. C[C@@H]1CN(C(=O)N2Cc3c(NC(=O)c4ccccn4)n[nH]c3C2(C)C)[C@@H](C)CN1C1CCOCC1
T. C[C@H]1CN2CCC[C@H]2CN1C(=O)N1Cc2c(NC(=O)c3c(F)ccc(F)c3F)n[nH]c2C1(C)C
Query: Rank descending by Ki. The response must list the labels following the requested ordering.
Reply: T, P, Q, R, S
(T: 0.135 µM, P: 0.0664 µM, Q: 0.0292 µM, R: 0.0111 µM, S: 0.0017 µM)

1. COc1ccc(C(=O)Nc2n[nH]c3c2CN(C(=O)N2C[C@@H]4CCCN4C[C@@H]2C)C3(C)C)nc1
2. CCOc1cccc(C(=O)Nc2n[nH]c3c2CN(C(=O)N2C[C@@H]4CCCN4C[C@@H]2C)C3(C)C)c1
Query: // which entry reports the smaller Ki, 1 or 2 ? Reply with the label of the item you choose.
Reply: 2
(2: 0.0375 µM, 1: 0.0655 µM)

I. Cc1cc(C(=O)Nc2n[nH]c3c2CN(C(=O)N2C[C@@H]4CCCN4C[C@@H]2C)C3(C)C)ccc1F
II. C[C@H]1CN(C)C(C)(C)CN1C(=O)N1Cc2c(NC(=O)c3ccc(F)cc3F)n[nH]c2C1(C)C
Query: // which entry reports the smaller Ki, I or II ? Reply with the label of the item you choose.
Reply: I
(I: 0.0508 µM, II: 0.0871 µM)
